Sourced from PubChem BioAssay (NCI)

Test system: OVCAR-8 ovarian
Assay: NCI tumour cell line growth inhibition, 48 h
Can you tell me GI50 for the items I'm about to list?

Observe how each entry below is paired with its result.
COC1=CC(c2ccc[nH]2)=N/C1=C\c1[nH]c(C)c(C(=O)Oc2ccccc2)c1C
0.288 µM
CCCCCCCCCCCCNC(=O)N[C@H](C(=O)N[C@H]1/C=C/CCNC(=O)/C=C/[C@H](C)NC1=O)C(C)C
0.463 µM
CC(C)C(=O)Nc1ccc(-c2nc(-c3cccc(OCCN4CCOCC4)c3)c(-c3ccnc(Br)c3)[nH]2)cc1
4.16 µM
CCCCOC(=O)/C=C\C(=O)NC(N)=O
29.7 µM

Look at each molecule and report its GI50.
1. CS(=O)(=O)c1ccc2c(c1)C(=O)c1c-2n(CCCBr)c(=O)c2cc([N+](=O)[O-])ccc12
2. Cc1cc(I)cc(CNCCN2CCOCC2)c1O
3. COc1ccc(C2CC(c3ccccc3)=NN2C(=O)c2cc(OC)c(OC)c(OC)c2)cc1O (configuration not stated)

1: 29.3 µM; 2: > 100 µM; 3: 0.659 µM

###

System: UACC-62 melanoma
Experiment: NCI tumour cell line growth inhibition, 48 h
Can you tell me TGI for the items I'm about to list?
One number for each entry, in µM.

Observe how each entry below is paired with its result.
O=C1Nc2ccc(O)cc2/C1=C\c1ccncc1
26.4
C[C@]12CCCN1CC1=NNC(=O)c3cc(F)cc4[nH]c2c1c34
28.3
O=C(NCCCl)NCCN1c2nc3ccccc3cc2Sc2cc3ccccc3nc21
18.2
CCC[CH2][Sn]1([CH2]CCC)[O]C(=O)CN=C(C)c2ccccc2[O]1
2.21

Turning now to a further compound:
State its TGI on UACC-62 melanoma: `NC(=O)c1cc(I)ccc1NC(=O)/C=C/c1ccccc1Cl`
48.7

###

Test system: SF-268 CNS
Test: NCI tumour cell line growth inhibition, 48 h
MEASUREMENT LABEL: TGI

Observe how each entry below is paired with its result.
O=C(NCCCl)NCCN1c2nc3ccccc3cc2Sc2cc3ccccc3nc21
> 41 µM
CCC1(OC(=O)CNC)C(=O)OCc2c1cc1n(c2=O)Cc2cc3ccccc3nc2-1 (centres undefined)
0.709 µM
O=C(CC(Cc1ccccc1)c1ccc(Oc2ccccc2)cc1)Nc1cccc(Cl)c1 (centres undefined)
> 100 µM
COC(=O)CN=C1NC(=S)N(Cc2ccc(OC)cc2)C12CCCC2
> 100 µM
N#CC(c1ccccc1)N(CCc1ccccc1)C(=O)c1ccc(C(=O)N(CCc2ccccc2)C(C#N)c2ccccc2)cc1 (centres undefined)
55.2 µM

Look at each compound and report its TGI.
1. C/C=C(\C)c1cc(=O)c2c(C)cc3c(c2o1)C(OC)(OC(C)=O)c1c(O)c(C2CC(C)(N(C)C)C(OC(C)=O)C(C)O2)cc(C2CC(N(C)C)C(OC(C)=O)C(C)O2)c1C3=O (centres undefined)
2. Cc1ccc(NC(=O)CCc2nnc3s/c(=C\c4cccc([N+](=O)[O-])c4)c(=O)n23)cc1

1. 4.89 µM
2. > 100 µM

Look at each compound and report its TGI.
1. CCOC(=O)NC(=O)c1cn(CCCCCCCCCCC(=O)NCCCN2CCN(CCCNC(=O)CCCCCCCCCCn3cc(C(=O)NC(=O)OCC)c(=O)[nH]c3=O)CC2)c(=O)[nH]c1=O
2. Cc1ccc(/C=C(/C#N)n2nnc3ncccc32)cc1

> 100 µM
15.1 µM

Look at each compound and report its TGI.
1. Cc1cc(O)c2c(c1)C(C1OC(CO)C(O)C(O)C1O)c1cc(O)cc(O)c1C2=O (centres undefined)
2. O=C(NNC(=S)Nc1ccc(Cl)cc1)C12CC3CC(CC(C3)C1)C2
3. O=c1ccc2c(Cl)cccc2o1
4. Cc1cn(CC2=NC3CCCCC3N2)c(=O)[nH]c1=O (centres undefined)
5. O=[N+]([O-])c1ccc(NNN=Nc2ccc(-c3nc4ccccc4[nH]3)cc2)c([N+](=O)[O-])c1
6. COc1cc(-c2cc(-c3cccs3)c(C#N)c(N3CCOCC3)n2)cc(OC)c1OC
7. Cc1cncc(-c2nc(NCCc3c[nH]c4ccccc34)c3ncn(C(C)C)c3n2)c1
8. COc1ccc(OC)c(N=Cc2cc(OC)c(OC)c(OC)c2)c1

> 100 µM
32 µM
> 100 µM
> 100 µM
> 100 µM
> 100 µM
38.6 µM
> 100 µM

Look at each compound and report its TGI.
1. O=C(NC(=O)c1ccccc1)OC(c1ccccc1)C1CO1 (centres undefined)
2. CSCCC(NC(=O)Cc1ccc(C(=O)c2ccccc2)cc1)C(=O)N1CCN(CCCCN2c3ccccc3Sc3cc(N=[N+]=[N-])ccc32)CC1 (centres undefined)

1: > 100 µM; 2: > 100 µM
